Attribution: ChEMBL document CHEMBL4385641

- test.protocol: Cmax in C57BL6 mouse plasma at 0.3 mg/kg, po by LC-MS/MS analysis
- Assay type: ADME, organism-based
- Design: dose 0.3 mg/kg, route oral
measurement.kind: Cmax (ng/mL)
Record the value in ng/mL, omitting the unit from your answer.

Input line: Quick one: Cmax of O=S(=O)(NC1CCCCC1)NC1CCN(c2ncnc3c2nc(-c2ccccc2Cl)n3-c2ccc(Cl)cc2)CC1 ?
Output line: 4

* * *

- test.protocol: Permeability across apical to basolateral side in MDCK-MDR1 cells at 10 uM incubated for 1 hr by mass spectrometric method
- Format: ADME, cell-based, Canis lupus familiaris
- details: dog, mdck-mdr1, 1 h
measurement.kind: permeability

O=S(=O)(NC1CCN(c2ncnc3c2nc(-c2ccccc2Cl)n3-c2ccc(Cl)cc2)CC1)c1ccc(F)c(F)c1 : < 0.1%
O=S(=O)(CC1CCCCC1)NC1CCN(c2ncnc3c2nc(-c2ccccc2Cl)n3-c2ccc(Cl)cc2)CC1 : < 0.1%

Continue with the molecule presented below.
Input line: Returns the measured permeability for the input molecule. Input: CC(C(=O)NC1CCN(c2ncnc3c2nc(-c2ccccc2Cl)n3-c2ccc(Cl)cc2)CC1)c1ccccc1 (stereo not drawn)
Output line: < 0.1%

* * *

Entries and their measured log10(Ke(app)) follow.
- target: UniProt P21554
- Sequence (P21554 whole entry): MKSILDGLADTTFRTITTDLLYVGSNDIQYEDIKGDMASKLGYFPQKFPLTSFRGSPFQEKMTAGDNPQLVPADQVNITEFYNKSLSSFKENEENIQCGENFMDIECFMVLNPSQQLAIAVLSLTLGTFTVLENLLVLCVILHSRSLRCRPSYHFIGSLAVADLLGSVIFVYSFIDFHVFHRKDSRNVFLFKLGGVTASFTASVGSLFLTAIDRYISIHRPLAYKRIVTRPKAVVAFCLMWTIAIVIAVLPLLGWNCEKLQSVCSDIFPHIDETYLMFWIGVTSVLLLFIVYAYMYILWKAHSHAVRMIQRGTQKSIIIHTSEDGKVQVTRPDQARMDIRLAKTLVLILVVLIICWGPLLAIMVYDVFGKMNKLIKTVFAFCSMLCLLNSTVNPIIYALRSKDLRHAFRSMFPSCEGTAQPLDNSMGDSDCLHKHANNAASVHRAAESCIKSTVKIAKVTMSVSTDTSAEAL
- test.protocol: Inverse agonist activity at human CB1 receptor expressed in CHOK1 cells co-expressing Galphaq16 assessed as apparent equilibrium constant after 90 secs by […]-4 AM dye-based FLIPR assay
- Assay type: cell-based
// units: nM (pre-log); metric: Ke(app); scale: log10

O=C(CC1CCOC1)NC1CCN(c2ncnc3c2nc(-c2ccccc2Cl)n3-c2ccc(Cl)cc2)CC1 (configuration not stated) : 3.00
O=C(NC1CCN(c2ncnc3c2nc(-c2ccccc2Cl)n3-c2ccc(Cl)cc2)CC1)c1ccc(F)c(F)c1 : -0.15
O=C(NC1CCN(c2ncnc3c2nc(-c2ccccc2Cl)n3-c2ccc(Cl)cc2)CC1)OC1CCC1 : 0.00
O=S(=O)(NC1CCCCC1)NC1CCN(c2ncnc3c2nc(-c2ccccc2Cl)n3-c2ccc(Cl)cc2)CC1 : 0.90
O=S(=O)(NC1CCN(c2ncnc3c2nc(-c2ccccc2Cl)n3-c2ccc(F)cc2)CC1)c1ccccc1F : 1.32

Input line: Report log10(Ke(app)) for CN(Cc1ccccc1)C1CCN(c2ncnc3c2nc(-c2ccccc2Cl)n3-c2ccc(Cl)cc2)CC1 tested on UniProt P21554.
Output line: 1.53

* * *

- target: Cannabinoid receptor 2 (Homo sapiens, UniProt P34972)
- Sequence (P34972 whole entry): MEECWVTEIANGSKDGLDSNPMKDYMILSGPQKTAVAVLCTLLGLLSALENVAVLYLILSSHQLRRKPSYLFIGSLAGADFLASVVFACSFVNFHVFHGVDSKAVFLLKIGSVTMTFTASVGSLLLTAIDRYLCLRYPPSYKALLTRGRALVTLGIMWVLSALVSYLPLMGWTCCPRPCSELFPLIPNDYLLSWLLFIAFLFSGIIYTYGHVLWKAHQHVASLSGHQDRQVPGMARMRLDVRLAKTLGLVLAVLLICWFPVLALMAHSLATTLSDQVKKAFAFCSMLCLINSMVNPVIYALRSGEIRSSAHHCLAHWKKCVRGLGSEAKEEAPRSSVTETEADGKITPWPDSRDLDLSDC
- test.protocol: Displacement of [3H]-CP55940 from human CB2 receptor expressed in CHO cell membranes
measurement.kind: pKi
// scale note: pKi = -log10(conc_M); give the bare number

Input line: // query pKi value for entry CCCCC(=O)NC1CCN(c2ncnc3c2nc(-c2ccccc2Cl)n3-c2ccc(C(F)(F)F)nc2)CC1
Output line: 6.38

* * *

- target: Cannabinoid receptor 2 (Homo sapiens)
- test.protocol: Displacement of [3H]-CP55940 from human CB2 receptor expressed in CHO cell membranes
pKi: −log10 of the molar value.
measurement.kind: pKi

Look over these answered cases.
O=S(=O)(NC1CCN(c2ncnc3c2nc(-c2ccccc2Cl)n3-c2ccc(Cl)cc2)CC1)c1ccc(F)cc1F : < 5.00
Cc1cc(-n2c(-c3ccccc3Cl)nc3c(N4CCC(NS(=O)(=O)c5ccc(F)c(F)c5)CC4)ncnc32)no1 : < 5.00
Clc1ccc(-n2c(-c3ccccc3Cl)nc3c(N4CCC(Nc5ccccc5)CC4)ncnc32)cc1 : < 5.00

Let's switch to this compound now.
Input line: Given the compound COCCOC(=O)NC1CCN(c2ncnc3c2nc(-c2ccccc2Cl)n3-c2ccc(Cl)cc2)CC1 , what is its reported pKi?
Output line: < 5.30

* * *

- Species on record: Homo sapiens
- test.protocol: Selectivity ratio of Ki for displacement of [3H]-CP55940 from human CB2 receptor expressed in CHO cell membranes to Ki for displacement of [3H]-CP55940 from human CB1 receptor expressed in CHO cell membranes
measurement.kind: Ratio Ki

Sample records with Ratio Ki:
CC(C)(C)OCCC(=O)NC1CCN(c2ncnc3c2nc(-c2ccccc2Cl)n3-c2ccc(Cl)cc2)CC1 : 820
O=S(=O)(NC1CCCCC1)NC1CCN(c2ncnc3c2nc(-c2ccccc2Cl)n3-c2ccc(Cl)cc2)CC1 : 66
O=S(=O)(NC1CCN(c2ncnc3c2nc(-c2ccccc2Cl)n3-c2ccc(F)cc2)CC1)c1ccccc1F : > 3000
O=S(=O)(NC1CCN(c2ncnc3c2nc(-c2ccccc2Cl)n3-c2ccc(Cl)cc2)CC1)c1ccccc1F : 22000
O/N=C(\c1ccc(F)cc1)C1CCN(c2ncnc3c2nc(-c2ccccc2Cl)n3-c2ccc(Cl)cc2)CC1 (stereo in doubt; 21) : > 1400

Input line: For O=S(=O)(CC1CCCCC1)NC1CCN(c2ncnc3c2nc(-c2ccccc2Cl)n3-c2ccc(Cl)cc2)CC1 , what is its reported Ratio Ki?
Output line: > 1100

Input line: What does the record list as Ratio Ki for CN(Cc1ccccc1)C1CCN(c2ncnc3c2nc(-c2ccccc2Cl)n3-c2ccc(Cl)cc2)CC1 ?
Output line: 64

Input line: # input molecule: O=C(NC1CCN(c2ncnc3c2nc(-c2ccccc2Cl)n3-c2ccc(Cl)cc2)CC1)OC1CCC1 ; wanted: its Ratio Ki
Output line: 1800

* * *

- target: Cannabinoid receptor 2 (Homo sapiens)
- test.protocol: Displacement of [3H]-CP55940 from human CB2 receptor expressed in CHO cell membranes
Entries annotated with measured pKi
As a rule, pKi stands for the negative log10 of the concentration, concentration in M.

CC(C)(C)OCCC(=O)NC1CCN(c2ncnc3c2nc(-c2ccccc2Cl)n3-c2ccc(Cl)cc2)CC1 : 5.31
CC(C)(C)CC(=O)NC1CCN(c2ncnc3c2nc(-c2ccccc2Cl)n3-c2ccc(Cl)cc2)CC1 : 7.82
CN(Cc1ccccc1)C1CCN(c2ncnc3c2nc(-c2ccccc2Cl)n3-c2ccc(Cl)cc2)CC1 : 5.57
O=S(=O)(NC1CCN(c2ncnc3c2nc(-c2ccccc2Cl)n3-c2ccc(OC(F)F)nc2)CC1)c1ccc(F)c(F)c1 : 6.07
O=S(=O)(NC1CCN(c2ncnc3c2nc(-c2ccccc2Cl)n3-c2ccc(OC(F)F)nc2)CC1)c1ccccc1F : 6.72
O=C(NC1CCN(c2ncnc3c2nc(-c2ccccc2Cl)n3-c2ccc(Cl)cc2)CC1)C1CCSCC1 : 5.72
Clc1ccc(-n2c(-c3ccccc3Cl)nc3c(N4CCC(Nc5ccccn5)CC4)ncnc32)cc1 : 5.51

Okay, next one:
Input line: pKi for O=C(NC1CCN(c2ncnc3c2nc(-c2ccccc2Cl)n3-c2ccc(Cl)cc2)CC1)OCc1ccccc1 ?
Output line: 6.15

* * *

- Species: Homo sapiens
- test.protocol: Selectivity ratio of Ki for displacement of [3H]-CP55940 from human CB2 receptor expressed in CHO cell membranes to Ki for displacement of [3H]-CP55940 from human CB1 receptor expressed in CHO cell membranes
Listed below: Ratio Ki values for each entry.
Keep the answer to the number alone.

O=C(NC1CCN(c2ncnc3c2nc(-c2ccccc2Cl)n3-c2ccc(Cl)cc2)CC1)C1CCSCC1 : 630

# context switch: different molecule, same Ratio Ki
Input line: Which measured Ratio Ki value corresponds to CC(C)(C)CC(=O)NC1CCN(c2ncnc3c2nc(-c2ccccc2Cl)n3-c2ccc(Cl)cc2)CC1 ?
Output line: 75
